These measurements were taken from ChEMBL document CHEMBL1155496.

Target: Hydroxycarboxylic acid receptor 2 (Homo sapiens) (UniProt Q8TDS4)
Sequence (Q8TDS4 whole entry): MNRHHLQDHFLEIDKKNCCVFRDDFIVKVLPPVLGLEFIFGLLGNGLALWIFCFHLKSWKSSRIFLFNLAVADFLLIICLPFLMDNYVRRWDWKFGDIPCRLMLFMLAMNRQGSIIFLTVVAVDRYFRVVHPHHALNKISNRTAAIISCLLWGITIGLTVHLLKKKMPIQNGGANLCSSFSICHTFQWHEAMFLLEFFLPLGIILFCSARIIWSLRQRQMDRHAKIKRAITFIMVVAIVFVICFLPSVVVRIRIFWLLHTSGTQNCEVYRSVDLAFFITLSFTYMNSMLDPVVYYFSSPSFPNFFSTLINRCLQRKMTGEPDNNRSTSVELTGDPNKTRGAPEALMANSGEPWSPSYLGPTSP
Test: Serum shift in 3H-niacin binding to GPR109A receptor with 4% human serum
// classify: if (serum shift < 40) criterion met else criterion not met

>  <molecule>
CC(Cc1ccn(-c2ccc(O)cn2)n1)C(=O)NC1=C(C(=O)O)CC[C@@H](C)C1 (stereo not given in full)

>  <classification>
criterion not met

$$$$
>  <molecule>
Cc1c(CC(C)C(=O)NC2=C(C(=O)O)CCCC2)cnn1-c1ccc(O)cc1 (stereo not given)

>  <classification>
criterion not met

$$$$
>  <molecule>
CC(Cc1ccn(-c2ccc(O)cn2)n1)C(=O)NC1=C(C(=O)O)CCC(c2cc(F)c(F)c(F)c2)C1 (stereo not given)

>  <classification>
criterion met

$$$$
>  <molecule>
Cc1c(CC(C)C(=O)Nc2ccccc2C(=O)O)cnn1-c1ccc(O)cc1 (stereo not given)

>  <classification>
criterion not met

$$$$
